- Target under test: Receptor-type tyrosine-protein kinase FLT3 (Homo sapiens, UniProt P36888)
- Sequence (P36888 whole entry): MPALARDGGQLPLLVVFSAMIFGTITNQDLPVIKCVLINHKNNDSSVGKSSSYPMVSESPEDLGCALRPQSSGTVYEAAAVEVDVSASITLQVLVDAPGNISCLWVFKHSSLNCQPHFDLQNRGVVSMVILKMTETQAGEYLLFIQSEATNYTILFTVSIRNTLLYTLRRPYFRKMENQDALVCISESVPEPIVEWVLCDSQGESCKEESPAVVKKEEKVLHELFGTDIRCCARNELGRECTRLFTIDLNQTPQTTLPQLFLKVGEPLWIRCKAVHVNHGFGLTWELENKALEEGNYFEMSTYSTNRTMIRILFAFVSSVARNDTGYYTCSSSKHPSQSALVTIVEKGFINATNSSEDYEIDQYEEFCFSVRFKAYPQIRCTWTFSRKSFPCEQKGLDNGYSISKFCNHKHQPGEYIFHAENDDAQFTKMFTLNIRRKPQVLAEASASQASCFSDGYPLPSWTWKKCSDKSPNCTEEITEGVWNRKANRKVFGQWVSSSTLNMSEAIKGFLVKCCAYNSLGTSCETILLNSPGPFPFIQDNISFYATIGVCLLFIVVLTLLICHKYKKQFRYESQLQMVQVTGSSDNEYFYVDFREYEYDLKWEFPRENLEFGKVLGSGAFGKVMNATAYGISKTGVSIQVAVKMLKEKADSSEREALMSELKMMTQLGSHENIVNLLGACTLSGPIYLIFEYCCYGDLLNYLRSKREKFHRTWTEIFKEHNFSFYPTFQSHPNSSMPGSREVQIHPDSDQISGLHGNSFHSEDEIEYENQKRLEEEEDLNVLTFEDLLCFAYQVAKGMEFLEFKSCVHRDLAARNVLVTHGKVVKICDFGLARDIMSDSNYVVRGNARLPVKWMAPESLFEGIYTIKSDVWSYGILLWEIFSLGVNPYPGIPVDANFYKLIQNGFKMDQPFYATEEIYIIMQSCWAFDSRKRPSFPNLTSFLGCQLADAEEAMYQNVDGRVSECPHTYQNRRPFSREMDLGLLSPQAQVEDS
pIC50: −log10 of the molar value.
Readout kind: pIC50

> print(dat)
                              line.notation  readout.kind  numeric.result
1  Cc1cnc(Nc2ccc(OCCN3CCCC3)cc2)nc1Nc1ccc(C(=O)NO)cc1         pIC50            7.96

###

- Assay explanation: Bioavailability in ICR (CD-1) mouse at 50 mg/kg, ip measured for 24 hrs by LC-MS/MS analysis
- Assay type: ADME, organism-based
- Condition context: ICR (CD-1), in vivo
Readout kind: bioavailability (%)

> print(dat)
                              line.notation  unit.of.measure  numeric.result
1               O=C(CCCCCCC(=O)Nc1ccccc1)NO                %              65
2  Cc1cnc(Nc2ccc(OCCN3CCCC3)cc2)nc1Nc1cccc(S(=O)(=O)NC(C)(C)C)c1                %             102
